Attribution: PubChem BioAssay AID1918931

Tested on: 138582-337-R-J1-PDC complex spheroid viability;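 further: spheroids exposed to agents for 7 days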
Assay Comment: Anticancer human tumor 138582-337-R-J1-PDC patient-derived Merkel cell tumor cell line growth inhibition
Condition Info: curve of first compound; second compound 10 µM
pIC50: −log10 of the molar value.
Reported Endpoint: pIC50

Log: 138582-337-R-J1-PDC complex spheroid viability, molecule COc1cc(Nc2ncc3c(n2)-c2ccc(Cl)cc2C(c2c(F)cccc2OC)=NC3)ccc1C(=O)O + NC1CCC(NC2CC2c2ccccc2)CC1 , pIC50 = < 6.00

Log: 138582-337-R-J1-PDC complex spheroid viability, molecule O=C(c1cc(Cc2n[nH]c(=O)c3ccccc23)ccc1F)N1CCN(C(=O)C2CC2)CC1 + NC1CCC(NC2CC2c2ccccc2)CC1 , pIC50 = < 5.00

Log: 138582-337-R-J1-PDC complex spheroid viability, molecule Nc1ncn(C2CC(O)C(CO)S2)c(=O)n1 (stereo not drawn) + NC1CC1c1ccc(-c2cccc(O)c2)cc1 , pIC50 = < 6.52
